- Test system: ND3 neuronal cell line
- Measurement notes: Measurement of nerve growth stimulation effect (neurite bearing assay, neurite length assay, number of cells)
- Type: cell-based
- Assay context: 1 μM; 6 hours; relative cell number, DMSO well = 1
# Lookup of reported viability at 1 µM keyed by entry
Give the number; % is assumed, so skip it.

Please review the entries below; each comes with its answer.
[[record]]
compound = "CC1=C(CCCCCCCCCCCCOC(C)C)C(C)(C)CCC1=O"
measured_attribute = "viability at 1 µM"
observed = 91

[[record]]
compound = "CCOCCCCCCCCCCCCC1=C(C)C(=O)CCC1(C)C"
measured_attribute = "viability at 1 µM"
observed = 96

[[record]]
compound = "COC(C)(C)CCCCCCCCCCCCCCC1=C(C)C(O)CCC1(C)C (stereo not shown)"
measured_attribute = "viability at 1 µM"
observed = 98

[[record]]
compound = "CCOCCCCCCCCCCCCCC1=C(C)C(=O)CCC1(C)C"
measured_attribute = "viability at 1 µM"
observed = 99

[[record]]
compound = "CC1=C(CCCCCCCCCCCCCCC(=O)N(C)C)C(C)(C)CCC1=O"
measured_attribute = "viability at 1 µM"
observed = 93


### Prompt Using known records, supply viability at 1 µM for CCOC(=O)OCCCCCCCCCCCCCCCC1=C(C)C(=O)CCC1(C)C
### Response 96

### Prompt Read off the recorded viability at 1 µM for CC1=C(CCCCCCCCCCCCCCCOC(C)C)C(C)(C)CCC1=O
### Response 102

### Prompt Give the measured viability at 1 µM for CCCCOCCCCCCCCCCCCC1=C(C)C(=O)CCC1(C)C
### Response 93

### Prompt For CCC1=C(CCCCCCCCCCCCCCCOC)C(C)(C)CCC1=O , write its viability at 1 µM.
### Response 90

### Prompt Specify viability at 1 µM for COCCCCCCCCCCCCCCCC1=C(C)C(=O)CC1 and stop.
### Response 94

### Prompt Quick one: give measured viability at 1 µM for CCCCOCCCCCCCCCCCCCC1=C(C)C(=O)CCC1(C)C
### Response 110

### Prompt Return value of viability at 1 µM for input COCCCCCCCCCCCCCCCC1=C(C)C(=O)C(C)C1C (stereo not shown) , no commentary.
### Response 94

### Prompt Indicate the recorded viability at 1 µM value for this compound: COCCCCCCCCCCCCCCCC1=C(C)C(=O)CCC1(C)C
### Response 106

* * *

Below: a set of entries, each annotated with reported Number of cells.
- Tested on: ND3 neuronal cell line
- Measurement notes: Measurement of nerve growth stimulation effect (neurite bearing assay, neurite length assay, number of cells)
- Type: cell-based
- Assay context: 30 μM compound; ND3 cells, 6 h; relative cell number, DMSO well = 1
- Procedure: To evaluate the nerve growth stimulation effect, neurite bearing assay (proportion of neurite-bearing cells) and neurite length assay (neurite length) were analyzed with reference to the method of Topalli et al. (Brain Research 1030 (2004), pp. 116-124). An ND3 neuronal cell line (European Collection of Authenticated Cell Cultures) was seeded in a DMEM medium containing 10% fetal bovine serum (0.6×10^4 cells/1 mL) in a 24-well plate. […]
Enter a number only.

Some solved entries appear below for comparison.
[[record]]
compound = "CC1=C(CCCCCCCCCCCCCCC#N)C(C)(C)CC1=O"
measured_target = "ND3 neuronal cell line"
measured_attribute = "Number of cells"
observed = 0.75

[[record]]
compound = "COCCCCCCCCCCCCCCCC1=C(C)C(=O)CC1(C)C"
measured_target = "ND3 neuronal cell line"
measured_attribute = "Number of cells"
observed = 0.70

[[record]]
compound = "COCCCCCCCCCCCCCCCC1=C(C)CCCC1(C)C"
measured_target = "ND3 neuronal cell line"
measured_attribute = "Number of cells"
observed = 0.96

[[record]]
compound = "COCCCCCCCCCCCCCCCC1=C(C)C(O)CCC1(C)C (centres unmarked)"
measured_target = "ND3 neuronal cell line"
measured_attribute = "Number of cells"
observed = 1.05


### Prompt Give the measured Number of cells for COCCCCCCCCCCCCCCCC1C(C)C(=O)CCC1(C)C (centres unmarked)
### Response 1.11
